target: ECF26_4464
recordedEndpoint: fold repression
Give bare numbers.

Here are 2 binders together with their reported answers.
binder: AS33_423 (protein) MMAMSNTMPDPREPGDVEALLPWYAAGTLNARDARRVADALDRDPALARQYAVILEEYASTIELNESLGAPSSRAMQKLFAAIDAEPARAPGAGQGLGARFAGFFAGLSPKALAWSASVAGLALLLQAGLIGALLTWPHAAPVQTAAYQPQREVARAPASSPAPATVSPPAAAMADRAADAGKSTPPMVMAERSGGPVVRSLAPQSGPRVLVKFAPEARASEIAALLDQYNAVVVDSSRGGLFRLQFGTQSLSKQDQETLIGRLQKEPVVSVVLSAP
measuredValue: 9.42
--
binder: AS11_987 (protein) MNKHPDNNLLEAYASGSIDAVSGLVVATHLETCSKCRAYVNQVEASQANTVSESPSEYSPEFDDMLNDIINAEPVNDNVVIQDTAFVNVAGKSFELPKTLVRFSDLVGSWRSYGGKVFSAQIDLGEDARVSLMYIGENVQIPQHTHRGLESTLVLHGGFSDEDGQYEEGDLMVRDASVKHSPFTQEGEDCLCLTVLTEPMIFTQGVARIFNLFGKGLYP
measuredValue: 2.97

For the 2 binders below, give their fold repression values.
1. AS33_375 (protein) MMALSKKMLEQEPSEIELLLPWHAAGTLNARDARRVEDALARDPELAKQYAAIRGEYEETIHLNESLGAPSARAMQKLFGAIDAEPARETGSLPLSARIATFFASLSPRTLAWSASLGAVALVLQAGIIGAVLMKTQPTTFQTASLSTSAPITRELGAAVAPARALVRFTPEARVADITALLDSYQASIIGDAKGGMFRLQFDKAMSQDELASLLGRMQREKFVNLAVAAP
2. AS25_1643_cl43 (protein) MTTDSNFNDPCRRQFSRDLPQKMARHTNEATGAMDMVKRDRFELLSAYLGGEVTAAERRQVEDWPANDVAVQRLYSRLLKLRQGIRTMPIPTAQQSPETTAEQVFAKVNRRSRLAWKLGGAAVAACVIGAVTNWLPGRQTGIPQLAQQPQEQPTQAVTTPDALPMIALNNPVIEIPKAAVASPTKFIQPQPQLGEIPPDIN

### Response
[14.1, 6.66]
